- experiment_notes: Cytotoxicity against human IMR90 cells up to 1 uM
- Format: cell-based
- condition_label: imr-90

>  <compound>
C=C1C[C@@H]2CC[C@@]34C[C@H]5O[C@H]6[C@@H](O3)[C@H]3O[C@H](CC[C@@H]3O[C@H]6[C@H]5O4)CC(=O)C[C@@H]3[C@@H](OC)[C@@H](C[C@H](O)COC(C)=O)O[C@H]3C[C@H]3O[C@@H](CC[C@@H]1O2)C[C@@H](C)C3=C

>  <Activity>
Non-toxic

$$$$
>  <compound>
CC[C@]1(O)C[C@@H]2CN(CCc3c([nH]c4ccccc34)[C@@](C(=O)OC)(c3cc4c(cc3OC)N(C)[C@H]3[C@@](O)(C(=O)OC)[C@H](OC(C)=O)[C@]5(CC)C=CCN6CC[C@]43[C@@H]65)C2)C1 [VINBLASTINE]

>  <Activity>
Non-toxic

$$$$
